# GI50 per entry
System: DMS-273
Assay: NCI tumour cell line growth inhibition, 48 h
The source made the active and inactive calls. No stated cut-off is given here; in the data, active = GI50 up to about 1.1 µM and inactive = higher.
MEASURED_ENDPOINT: GI50

MOLECULE	STUDY_SYSTEM	MEASURED_ENDPOINT	READOUT_VALUE
N#C/C(=C\c1ccc(O)c(O)c1)C(N)=O	DMS-273	GI50	57.7 µM (inactive)
O=c1c2ccccc2c(=O)c2c1c1[nH]c3ccccc3c1c1c(=O)c3ccccc3c(=O)c21	DMS-273	GI50	> 100 µM (inactive)
CCOC(=O)c1c2ccc(/C=C/C(=O)OC)ccc-2c(C(=O)OCC)c1N	DMS-273	GI50	> 100 µM (inactive)
CC(=O)OCC1OC(OC2C(COC(C)=O)OC(Sc3ccccc3C)C(OC(C)=O)C2OC(C)=O)C(OC(C)=O)C(OC(C)=O)C1OC(C)=O (stereo not given)	DMS-273	GI50	> 100 µM (inactive)
O=C(NC1C(=O)NNC1c1ccccc1Cl)c1ccccc1 (stereo not given)	DMS-273	GI50	> 100 µM (inactive)
Cc1cccc(-c2nnc3s/c(=C\c4ccc5c(c4)OCO5)c(=O)n23)c1	DMS-273	GI50	> 100 µM (inactive)
CCOC(=N)CC(=O)Nc1cccc(Cl)c1	DMS-273	GI50	> 100 µM (inactive)
CCCC/C=C1/CCC(CN(C)C)C1=O (stereo not given)	DMS-273	GI50	2.71 µM (inactive)
CC(C)(C)c1cc(C2c3cc4c(cc3OC(O)(CO)C2C(=O)O)OCO4)cc(C(C)(C)C)c1O.CC(C)(C)c1cc(C2c3cc4c(cc3OC3(O)COC(=O)C23)OCO4)cc(C(C)(C)C)c1O (stereo not given)	DMS-273	GI50	14 µM (inactive)
CSC(=Nc1nnc(-c2ccc([N+](=O)[O-])cc2)s1)SC	DMS-273	GI50	41.1 µM (inactive)

----------
# GI50 per entry
Test system: SN12C
Test: NCI tumour cell line growth inhibition, 48 h
Activity calls are given as the source filed them. Rule as the data show it: active = GI50 up to about 1.1 µM and inactive = higher.

COMPOUND	GI50
CC(CNC(N)=O)NC(N)=O (stereo not given)	> 100 µM (inactive)
C=C(C)[C@H]1C2=CC(C)=C(O2)[C@@H](O)[C@H](C(=C)C)CCC2=C[C@H]1OC2=O [KALLOLIDE A]	> 100 µM (inactive)
CN1C(=O)C(C)(C)C2(SC(C)(C)C2(C)C)N(C)C1=S (stereo not given)	> 100 µM (inactive)
COc1cc([N+](=O)[O-])c(S(=O)(=O)O)cc1-n1nc(C(=O)Nc2ccccc2)n[n+]1-c1cc(S(=O)(=O)[O-])c([N+](=O)[O-])cc1OC	> 100 µM (inactive)
CCOC(=N)CC(=O)Nc1cccc(Cl)c1	51.2 µM (inactive)
CCN(CC)CC(=O)Nc1c(C(N)=O)nnn1Cc1cc(Cl)c(C(=O)c2ccc(Cl)cc2)c(Cl)c1	22.6 µM (inactive)
N#C/C(=C\c1ccc(O)c(O)c1)C(N)=O	39.2 µM (inactive)
CCOc1cc(NC(C)=O)ccc1C(=O)NN1C(=O)C(Oc2ccccc2)C1c1ccc(O)c(OC)c1 (stereo not given)	28 µM (inactive)
CC(=O)Nc1c(C(=N)C#N)ncn1CCO	> 100 µM (inactive)
Clc1ccc(OCC2NC3C=CC32)cn1 (stereo not given)	> 100 µM (inactive)

----------
Tested on: LOX IMVI
Test: NCI tumour cell line growth inhibition, 48 h
Calls of active or inactive are those of the source. Cut-off read from the data, not from the text of the source: active = GI50 up to about 1.1 µM and inactive = higher.
# GI50 per entry

COMPOUND	GI50
CCC1([N+](=O)[O-])CN(N=O)C1	> 100 µM (inactive)
CC(C)(C)c1ccc(-c2nc3ccccc3c(=O)o2)cc1	18.7 µM (inactive)
O=C(NCc1ccccc1)c1cnc(Cl)cn1	28.8 µM (inactive)
CCOC(=O)N/N=C(/N)c1cccc([N+](=O)[O-])c1	> 100 µM (inactive)
N#Cc1c(N2CCCC2)nsc1Nc1ccccc1	> 100 µM (inactive)
OCC1(CNc2cc(Cl)ncn2)CCC1	> 100 µM (inactive)
C=C1CC(CC(=O)C(C)CC2CC(=C)C(=O)O2)OC1=O (stereo not given)	15.6 µM (inactive)
CC1=CC2CC(C)=C(CC[C@]3(C)CC[C@H]([C@@H](C)C(=O)O)OO3)C(C)(C)C2CC1 (stereo not given in full)	0.0792 µM (active)
COC(=O)C(CCSC)NC(=O)Cc1ccc(C(=O)c2ccccc2)cc1 (stereo not given)	55.7 µM (inactive)
NC(C(=O)O)C(N)C(=O)O (stereo not given)	> 100 µM (inactive)
CCOC(=O)c1c(-c2ccc(Cl)cc2)c(C#N)c(=S)n(C2OC(COC(C)=O)C(OC(C)=O)C(OC(C)=O)C2OC(C)=O)c1C (stereo not given)	> 100 µM (inactive)
CC[C@@]1(OC(=O)C(N)CCC(=O)O)C(=O)OCc2c1cc1n(c2=O)Cc2cc3ccccc3nc2-1 (stereo not given in full)	0.0196 µM (active)
NC(CSC(=O)c1ccccc1)C(=O)O (stereo not given)	> 100 µM (inactive)
O=C1CC(NCc2ccccc2)c2c(Cl)sc(Cl)c21 (stereo not given)	5.05 µM (inactive)
Cc1cc2[nH]c3[nH]c(=O)[nH]c(=O)c3c2cc1C	> 100 µM (inactive)
C=C1C(C2(C)C(OC(C)=O)CC(=O)OC(C)(COC(C)=O)C2CC(=O)OC)C(OC=O)C(OC(=O)C(O)C(C)CC)C2(C)C(c3ccoc3)CC(=O)C12O (stereo not given)	3.82 µM (inactive)
C[C@]1(O)CC(=O)c2c(c(-c3ccc4cc5c(c(O)c4c3O)C(=O)C[C@@](C)(O)C5)c3cccc(O)c3c2O)C1	6.37 µM (inactive)
Cc1cc(S(=O)(=O)Nc2nc(N)n[nH]2)c(SCC(=O)O)cc1Cl	> 10 µM (inactive)
Cc1nc2sccn2c1C(=O)NC(=O)Nc1ccc(Cl)cc1	> 100 µM (inactive)
Cn1cnc([N+](=O)[O-])c1Sc1nc(N)nc2c1ncn2Cc1ccccc1	19.6 µM (inactive)
Oc1ccc(/C=C\c2nnc(/C=C\c3ccc(O)c(O)c3)s2)cc1O	5.46 µM (inactive)
O=C(c1ccccc1)C1C(c2ccccc2[N+](=O)[O-])N1C1CCCCC1 (stereo not given)	2.1 µM (inactive)
CC(C)(C)c1cc(C2c3cc4c(cc3OC(O)(CO)C2C(=O)O)OCO4)cc(C(C)(C)C)c1O.CC(C)(C)c1cc(C2c3cc4c(cc3OC3(O)COC(=O)C23)OCO4)cc(C(C)(C)C)c1O (stereo not given)	12.2 µM (inactive)
COC1CC(C)C(OC)c2cc(O)cc(c2O)NC(=O)/C(C)=C/C=C\C(C)C(OC(N)=O)/C(C)=C\C(C)C1OC (stereo not given)	0.471 µM (active)
CN(C)CCNC1=CC(=O)c2nc3ccccc3c3ccnc1c23	2.04 µM (inactive)
C/C(=N\NC(N)=S)c1cc(C)c(C)cc1C	70.8 µM (inactive)
COc1cccc(NC(=O)CC(=O)N2NC(C)C(/N=N/c3cccc(C(=O)O)c3)C2=O)c1 (stereo not given)	> 100 µM (inactive)
CCOC(=O)C(Cc1ccc(OC(=O)OC(C)(C)C)cc1)NC(=O)OC(C)(C)C (stereo not given)	44.1 µM (inactive)
CC(C)C(/C=C/c1ccc(Cl)c(Cl)c1)=N\NC(=O)N/N=C(/C=C/c1ccc(Cl)c(Cl)c1)C(C)C	> 100 µM (inactive)
O=C(CC(=O)Nc1ccccc1)NNC(c1cc(/N=N/c2ccc(Br)cc2)ccc1O)P(O)O (stereo not given)	1.71 µM (inactive)
CC1CCCc2c(CC3CC(=O)NC(=O)C3)n[nH]c21 (stereo not given)	> 100 µM (inactive)
CC1(C)CC2C(C1=O)C1(C)CCCC2(C)C1=O (stereo not given)	> 100 µM (inactive)
COc1cc(/C=C2\N=C(c3ccccc3)N(/N=C3\C(=O)Nc4ccccc43)C2=O)cc(OC)c1OC	90.8 µM (inactive)
CO/N=C(/C(=O)N(C(=O)/C(=N/OC)c1csc(NC(c2ccccc2)(c2ccccc2)c2ccccc2)n1)n1cnn(CC(=O)OC(C)(C)C)c1=O)c1csc(NC(c2ccccc2)(c2ccccc2)c2ccccc2)n1	> 10 µM (inactive)
COc1nc(SC)nc2c1C(O)n1c(nc3ccccc31)S2 (stereo not given)	34.6 µM (inactive)
CC1(C)O[C@H](C(=O)O)[C@@H](C(=O)O)O1	> 100 µM (inactive)
CN(C)c1ccc(/C=C(\NC(=O)c2ccccc2)C(=O)NC(Cc2c[nH]c3ccccc23)C(=O)O)cc1 (stereo not given)	> 100 µM (inactive)
CCOC(=O)C1(C(=O)OCC)C(C(C)(C)C)=C(C)c2ccccc21	12.3 µM (inactive)
NNS(=O)(=O)c1cc(C(=O)O)cc(C(=O)O)c1	> 100 µM (inactive)
COC1(C)Cc2c(c(C)c(O)c3c2C(=O)C=C(Cl)C3=O)O1 (stereo not given)	44.8 µM (inactive)
